These entries and their values trace back to patent US11873288B2.

Record type: Kd measurement. Applies to: hFAAH (Homo sapiens)
Output spec: scalar in nM, unitless text.

Task item: Form entry - test system: hFAAH (Homo sapiens); read-out: Kd; molecule: COc1ccc(NC(=O)N2CCC(Cc3cccc(Oc4ccc(C(F)(F)F)cn4)c3)CC2)cc1
Sequence (O00519 whole entry): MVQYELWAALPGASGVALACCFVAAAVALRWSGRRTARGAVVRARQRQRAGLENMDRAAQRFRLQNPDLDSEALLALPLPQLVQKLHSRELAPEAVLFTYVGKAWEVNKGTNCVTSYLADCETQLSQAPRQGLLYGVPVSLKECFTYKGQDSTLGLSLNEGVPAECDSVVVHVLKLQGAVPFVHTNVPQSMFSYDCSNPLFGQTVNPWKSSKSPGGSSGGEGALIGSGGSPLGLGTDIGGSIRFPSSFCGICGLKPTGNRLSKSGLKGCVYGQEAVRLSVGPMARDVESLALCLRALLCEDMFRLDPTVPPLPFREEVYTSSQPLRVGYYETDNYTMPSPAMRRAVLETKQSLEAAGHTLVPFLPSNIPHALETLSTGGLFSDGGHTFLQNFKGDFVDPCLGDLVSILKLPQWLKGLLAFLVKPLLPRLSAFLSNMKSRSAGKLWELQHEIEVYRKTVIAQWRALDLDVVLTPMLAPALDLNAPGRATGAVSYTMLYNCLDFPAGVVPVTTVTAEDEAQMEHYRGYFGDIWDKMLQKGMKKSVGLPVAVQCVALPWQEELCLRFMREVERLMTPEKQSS
Reply: 0.7

----------
- study-target: hFAAH (Homo sapiens)
- assay-protocol: recombinant FAAH enzyme with fluorescent substrate OMP (hFAAH IC50, screen)
The following compounds are listed with their measured log10(IC50) values.
Quick note: numbers are log10 of IC50, with nM as the unit.

Here's what some known entries look like.
[
  {
    "smiles-data": "O=C(Nc1cccnn1)N1CCC(Cc2cccc(Oc3ccc(C(F)(F)F)cn3)c2)CC1",
    "log10(IC50)": -0.30
  },
  {
    "smiles-data": "O=C(Nc1ccc(C(F)(F)F)nc1)N1CCC(Cc2cccc(Oc3ccc(C(F)(F)F)cn3)c2)CC1",
    "log10(IC50)": 1.38
  },
  {
    "smiles-data": "O=C(Nc1ccc(Cl)cc1)N1CCC(Cc2cnc3ccccc3c2)CC1",
    "log10(IC50)": 1.79
  },
  {
    "smiles-data": "COc1ccc(NC(=O)N2CCC(c3nc(-c4ccccc4)cs3)CC2)cc1",
    "log10(IC50)": 2.40
  },
  {
    "smiles-data": "O=C(Nc1ccc(C(F)(F)F)cc1F)N1CCC(Cc2cccc(Oc3ccc(C(F)(F)F)cn3)c2)CC1",
    "log10(IC50)": 0.48
  },
  {
    "smiles-data": "COc1ccc(NC(=O)N2CCC(Cc3cnc4ccccc4c3)CC2)cc1",
    "log10(IC50)": 1.51
  },
  {
    "smiles-data": "COc1ccc(NC(=O)N2CCC(Cc3ccc4ccccc4c3)CC2)cc1",
    "log10(IC50)": 0.87
  }
]

Task item: Which log10(IC50) value is on record for O=C(Nc1ccc(F)cc1)N1CCC(Cc2cnc3ccccc3c2)CC1 ?
Reply: 1.94

----------
- study-target: hsEH (Homo sapiens, UniProt P34913)
- Sequence (P34913 1-555): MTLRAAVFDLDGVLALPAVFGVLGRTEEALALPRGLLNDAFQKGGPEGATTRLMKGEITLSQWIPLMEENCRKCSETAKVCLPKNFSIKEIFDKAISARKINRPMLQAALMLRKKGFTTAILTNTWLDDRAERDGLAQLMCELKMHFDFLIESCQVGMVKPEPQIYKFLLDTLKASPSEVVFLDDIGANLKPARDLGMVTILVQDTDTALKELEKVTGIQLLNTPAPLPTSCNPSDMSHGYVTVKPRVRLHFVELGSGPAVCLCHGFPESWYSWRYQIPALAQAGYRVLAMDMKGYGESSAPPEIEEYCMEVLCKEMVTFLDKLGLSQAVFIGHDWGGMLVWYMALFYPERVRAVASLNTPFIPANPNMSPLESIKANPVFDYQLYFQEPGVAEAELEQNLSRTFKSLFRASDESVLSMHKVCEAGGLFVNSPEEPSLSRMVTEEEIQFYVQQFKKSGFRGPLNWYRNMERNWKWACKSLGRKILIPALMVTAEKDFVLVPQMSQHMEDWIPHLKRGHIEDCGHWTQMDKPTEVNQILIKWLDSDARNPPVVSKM
observable: IC50 (nM)
Output spec: scalar in nM, unitless text.

[
  {
    "compound": "COc1ccc(O[C@H]2CC[C@H](NC(=O)Nc3ccc(OC(F)(F)F)cc3)CC2)cc1 [Compound A-22]",
    "study-target": "hsEH (Homo sapiens, UniProt P34913)",
    "IC50 / nM": 3
  },
  {
    "compound": "Cc1noc(NC(=O)N2CCC(Cc3cccc(Oc4ccc(C(F)(F)F)cn4)c3)CC2)c1C [Compound B-17]",
    "study-target": "hsEH (Homo sapiens, UniProt P34913)",
    "IC50 / nM": 500
  },
  {
    "compound": "O=C(Nc1ccc(Cl)cc1)N1CCC(Cc2cnc3ccccc3c2)CC1 [Compound B-2]",
    "study-target": "hsEH (Homo sapiens, UniProt P34913)",
    "IC50 / nM": 20
  },
  {
    "compound": "O=C(Nc1ccc(OC(F)(F)F)cc1)N[C@H]1CC[C@H](Oc2ccc(C(=O)NCCO)cc2)CC1 [Compound A-15]",
    "study-target": "hsEH (Homo sapiens, UniProt P34913)",
    "IC50 / nM": 2
  },
  {
    "compound": "O=C(Nc1ccccc1)N[C@H]1CC[C@H](Oc2ccc(C(=O)O)cc2)CC1 [Compound A-1]",
    "study-target": "hsEH (Homo sapiens, UniProt P34913)",
    "IC50 / nM": 30
  }
]

Task item: Which IC50 value is on record for O=C(Nc1ccc(F)cc1)N1CCC(Cc2cnc3ccccc3c2)CC1 [Compound B-1] ?
Reply: 94
